outcome measure: melting point

compound=COC(=O)c1nsc(NC=O)n1 experimental_value="210 to 215 °C"
compound="COc1cc(CCCC2OC(=O)NC2=O)ccc1OCc1nc(-c2ccccc2)no1 (stereo not given)" experimental_value="110 to 111 °C"
compound=Cc1nc(-n2cc(-c3ccc(OCc4ccccc4)cc3)nn2)sc1C(=O)NCc1ccccc1 experimental_value="237 to 240 °C"
compound=Cc1nc2ccc(CN(CCO)c3ccc(C(=O)NCc4cccc(C#N)c4)cc3)cc2c(=O)[nH]1 experimental_value="110 to 112 °C"
compound=CS(=O)(=O)c1ccc(-c2cnn(Cc3ccccc3)c(=O)c2-c2ccc(Cl)cc2)cc1 experimental_value="157 to 159 °C"

----------
outcome measure: melting point

compound=CCOc1ccc2[nH]ccc2c1 experimental_value="144 to 146 °C"
compound="OCC1CCc2[nH]c3ccc(F)cc3c2C1 (stereo not given)" experimental_value="107 to 109 °C"
compound="COc1ccc(C2=NN(Cc3ccccc3)C(=O)[C@H]3CCCC[C@@H]23)cc1OC (relative stereo)" experimental_value="86 to 88 °C"
compound="O=C1N[C@H](C(=O)O)CSCCCCCCCCC1CS (stereo not given in full)" experimental_value="165 to 168 °C"
compound=CS(=O)(=O)N1CCSc2cccc(F)c2C1 experimental_value="115 to 117 °C"
compound=CC1(C)COC(=S)N(Cc2ccccc2N)C1 experimental_value="90.8 to 92.1 °C"
compound=Cc1nnc2n1-c1sc(C#Cc3ccccn3)cc1C(c1ccccc1Cl)=NC2 experimental_value="153 to 155 °C"
compound=CC(C)c1ccccc1NC(=O)c1ccccc1C(c1ccc(O)cc1)c1ccc(O)cc1 experimental_value="225 to 227 °C"
compound=Cc1cc(S(N)(=O)=O)n(C)n1 experimental_value="63 to 66 °C"
compound=CCCCCCCCc1ccc(-c2ncc(O)cn2)cc1 experimental_value="147 to 149 °C"
compound=CCCCCCCCCCCCCCCCNC(=O)c1ccc(-n2oc(C(C)(C)C)c(COc3ccc(N)cc3)c2=O)c([N+](=O)[O-])c1 experimental_value="220 °C"
compound=COC(=O)c1ccc([N+](=O)[O-])cc1NC(=O)c1ccc(C(C)(C)C)cc1 experimental_value="146 to 148 °C"
compound=Cc1cccc2c1C(=O)N(C1(C(=O)Nc3ccc(Cl)cc3)CCCCC1)C2=O experimental_value="208 to 209 °C"
compound=CC(C)(C)OC(=O)NCCCn1c(CCCOc2ccccc2)nc2c(N)nc3ccccc3c21 experimental_value="151 to 153 °C"
compound=CCOCn1cc(F)c(=O)n(C(=O)c2cccc(C(=O)Oc3nc(OC(=O)c4ccc(Cl)cc4Cl)ccc3C#N)c2)c1=O experimental_value="140 to 142 °C"
compound=CCOC(=O)c1cnn2c(NCc3ccc(-c4ccccc4C#N)cc3)ccnc12 experimental_value="148 to 150 °C"
compound="OC1CC(c2ccc(-c3ccc(OCc4ccc(Br)cc4)cc3)cc2)Cc2ccccc21 (stereo not given)" experimental_value="178 °C"
compound=CCc1ccc2nc(-c3ccc(-c4ccccc4)cc3)c(N)c(C(=O)O)c2c1 experimental_value="240 to 241 °C"
compound=Cc1nc(N)c2nc(CO)n(NC(C)C)c2c1C experimental_value="257 to 259 °C"
compound="[N-]=[N+]=NC1(c2nc(N)nc(N)n2)C=CC(c2ccccc2)=CC1 (stereo not given)" experimental_value="230 °C"
